- protocolNotes: qHTS assay to identify small molecule agonists of the estrogen related receptor (ERR) signaling pathway (AID 1224820)
- conditionDetails: ERR reporter cell line, luciferase agonist mode; series mostly up to 46.1 µM
Records with an inconclusive call do not appear. Active and inactive are the calls of the source. Calls follow the shape of the dose curve; as a rule, active = well fitted activation curve with a large enough effect in the repeat runs; inconclusive = weak or mixed curves; inactive = no such curve, though single readings can be large or run the other way.

{"compound": "Brc1ccccc1-c1ccccc1", "outcome": "inactive"}
{"compound": "CC1=C(/C=C/C(C)=C/C=C/C(C)=C/C(=O)Nc2ccc(O)cc2)C(C)(C)CCC1", "outcome": "inactive"}
{"compound": "O=C1c2c(O)ccc(O)c2C(=O)c2c(NCCNCCO)ccc(NCCNCCO)c21", "outcome": "inactive"}
{"compound": "COc1ccccc1OCCNCC(O)COc1cccc2[nH]c3ccccc3c12 (stereo not drawn)", "outcome": "inactive"}
{"compound": "CN1CCN(C2Cc3ccccc3Sc3ccc(Cl)cc32)CC1 (stereo not drawn)", "outcome": "inactive"}
{"compound": "S=P(N1CC1)(N1CC1)N1CC1", "outcome": "inactive"}
{"compound": "CCOC(=O)N1CCC(=C2c3ccc(Cl)cc3CCc3cccnc32)CC1", "outcome": "inactive"}
{"compound": "O=C(NO)c1ccccc1", "outcome": "inactive"}

Reference for the values: PubChem BioAssay (Tox21)
